FYI, the data here is from patent US20240041042A1.

system: Pharbitis purpurea (PHBPU); experiment: Pre-emergence herbicidal action against PHBPU; format: in vivo; conditions: dosage 320 g/ha
measured.attribute: Pre-emergence action against PHBPU in % (%)
Dear colleague, please return just the value in %, with no unit written.

These recorded examples may help you get a feel for the data.
Cc1cccc(-n2nc(OCC(=O)O)c(Br)c2-c2ccc(F)nc2)n1 :: 90
CC(C)=NOC(=O)[C@@H](C)Oc1nn(-c2ncccc2F)c(-c2ccc(F)nc2)c1Br :: 90
CCOC(=O)[C@@H](C)Oc1nn(-c2nc(F)ccc2F)c(-c2ccc(F)nc2)c1Br :: 80
O=C(O)CSc1nn(-c2ccccn2)c(-c2cncc(F)c2)c1C1CC1 :: 80
COC(=O)COc1nn(-c2nc(F)ccc2F)c(-c2cncc(F)c2)c1Cl :: 90

Challenge: Which Pre-emergence action against PHBPU in % is reported for this molecule? CCOC(=O)[C@@H](C)Oc1nn(-c2ccccn2)c(-c2cncc(F)c2)c1Cl
Response given: 90

Challenge: Which Pre-emergence action against PHBPU in % is reported for this molecule? COC(=O)CCOC(=O)COc1nn(-c2cccc(C)n2)c(-c2ccc(F)nc2)c1Br
Response given: 80

Challenge: Which Pre-emergence action against PHBPU in % is reported for this molecule? CC(NC(=O)[C@@H](C)Oc1nn(-c2ccccn2)c(-c2ccc(F)nc2)c1Cl)C(=O)O (some centres unmarked)
Response given: 80
